# Assay System: GRK4 (human) (UniProt P32298)
# Sequence (P32298 whole entry, looked up): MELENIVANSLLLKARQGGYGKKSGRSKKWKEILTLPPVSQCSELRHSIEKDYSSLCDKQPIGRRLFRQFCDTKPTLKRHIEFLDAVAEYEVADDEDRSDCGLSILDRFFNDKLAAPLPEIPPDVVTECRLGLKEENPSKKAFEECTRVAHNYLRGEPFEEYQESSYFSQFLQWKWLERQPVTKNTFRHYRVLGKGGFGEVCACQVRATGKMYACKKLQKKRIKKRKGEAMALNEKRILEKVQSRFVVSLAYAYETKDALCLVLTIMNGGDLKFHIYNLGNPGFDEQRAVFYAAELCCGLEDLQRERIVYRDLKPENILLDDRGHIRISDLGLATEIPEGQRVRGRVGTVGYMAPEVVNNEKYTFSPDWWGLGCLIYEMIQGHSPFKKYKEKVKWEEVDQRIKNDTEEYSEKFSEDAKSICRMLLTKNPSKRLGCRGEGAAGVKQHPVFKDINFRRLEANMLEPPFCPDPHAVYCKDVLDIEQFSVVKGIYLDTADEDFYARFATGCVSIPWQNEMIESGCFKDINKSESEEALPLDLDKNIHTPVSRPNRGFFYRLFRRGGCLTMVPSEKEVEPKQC
# Assay Name: radiometric filter-binding kinase assay, Kinase HotSpot
# Condition Summary: compound 0.5 µM; ATP 10 µM
Measured Parameter: residual activity (%)
Give the number; % is assumed, so skip it.

## Task Give the reported residual activity for N/C(=N\N=C/c1ccc(-c2cccc([N+](=O)[O-])c2)o1)N[N+](=O)[O-] (system: GRK4 (human) (UniProt P32298)).
## Result 95.5

## Task What is its residual activity for GRK4 (human) (UniProt P32298)? Entry: O=C1NC(=O)c2c1c1c3ccccc3[nH]c1c1[nH]c3cc(Br)ccc3c21
## Result 99.8

## Task Request: residual activity, test system GRK4 (human) (UniProt P32298), entry Nc1ncnc2c1cnn2-c1ccccc1
## Result 106

## Task Hello, I am looking for reported residual activity with GRK4 (human) (UniProt P32298) for COc1cc2c(N3CCN(C(=O)Nc4ccc(OC(C)C)cc4)CC3)ncnc2cc1OCCCN1CCCCC1 . Could you help?
## Result 106

## Task Item O=S(=O)(NCCNC/C=C/c1ccc(Br)cc1)c1cccc2cnccc12 with GRK4 (human) (UniProt P32298) - residual activity?
## Result 95.8

## Task Kindly state the measured residual activity obtained for Cn1cc(/C=C2\C(=O)Nc3ccc(S(N)(=O)=O)cc32)c2ccccc21 with GRK4 (human) (UniProt P32298).
## Result 40.4

## Task Recall the recorded residual activity for O=c1[nH]c2ccccc2n1C1CCN(Cc2ccc(-c3nc4cc5[nH]cnc5cc4nc3-c3ccccc3)cc2)CC1 with GRK4 (human) (UniProt P32298) and state it.
## Result 104

## Task Item CCc1nc(-c2ccc(OC)cc2)[nH]c1-c1ccncc1 with GRK4 (human) (UniProt P32298) - residual activity?
## Result 99.3

## Task // lookup residual activity | system=GRK4 (human) (UniProt P32298) | key= COc1cc2c(Nc3ccc(Br)cc3F)ncnc2cc1OCC1CCN(C)CC1
## Result 102

## Task Reported residual activity for GRK4 (human) (UniProt P32298), given COc1cccc(-c2cc(=O)c3ccccc3o2)c1N ?
## Result 104

## Task Request - read-out residual activity | tested on GRK4 (human) (UniProt P32298) | compound O=C(c1ccccc1)c1ccc(N2CCOCC2)cc1O
## Result 104

## Task Tell me reported residual activity for FC(F)(F)c1ccc(/C=C/c2nc(COc3ccc(CCCCn4ccnn4)cc3)co2)cc1 , tested with GRK4 (human) (UniProt P32298).
## Result 102

## Task Could you share what residual activity was measured for O=c1cc(N2CCOCC2)oc2c(-c3ccccc3)cccc12 , tested on GRK4 (human) (UniProt P32298)?
## Result 96.5

## Task Tell me reported residual activity for O=C1NC(=O)c2cc(Nc3ccc(F)cc3)c(Nc3ccc(F)cc3)cc21 , tested with GRK4 (human) (UniProt P32298).
## Result 103

## Task Find residual activity (GRK4 (human) (UniProt P32298)) for the entry O=c1c2ccccc2[nH]c(=S)n1CCN1CCC(=C(c2ccc(F)cc2)c2ccc(F)cc2)CC1
## Result 107
